- target_of_assay: T1, Pin3, Q06449
- T1 sequence (Q06449 53-122, looked up): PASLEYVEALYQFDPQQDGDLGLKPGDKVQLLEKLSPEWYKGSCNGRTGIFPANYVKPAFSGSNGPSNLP
- assay_overview: SPOT array
- condition_parameters: median of control spots 2171
observed_property: SPOT intensity

Here's what some known entries look like.
LKPPIGRPPKFPKSP : 0
VQQDSLPKLPFRSWG : 7
RPVPRRPSQPLNTLS : 26
FLIKFTPKFPQSIDH : 41
NNNKMRPHLPPLSSG : 85
YYNRQELALPKRMSS : 327
LKHGWKPLRPIKLIS : 3
YHSRRHPLALGFKYV : 13
ALRRRLPVTRSKINW : 10
GPPPPLPPPLFPSSS : 0

A: RSVKRPRRAPRPVVS
B: SPLGAPPPPPHKDHL
C: NLKKRPPTAPQRKIS
D: IKKRNKIRLPSGSPE
## Task Hey, can you sort those binders up there by SPOT intensity, smallest first? Form entry: labels listed in requested order.
## Result B, A, D, C
